- subject_of_test: T1, recombinant human IGF-II (Insulin-like Growth Factor II) (human, UniProt P01344 25-91, biotinylated (Biotinyl-IGF-II, GroPep) where immobilised in SPR, site not stated; not biotinylated in ITC and as SPR analyte)
- T1 construct: also called IGF2; IGF-2
- procedure_text: ITC, IGF-II titrated into domain 11
- Protocol: Calorimetric measurements were performed using a VP-ITC microcalorimeter (MicroCal). All solutions were thoroughly degassed before use by stirring under vacuum. […] The sample cell contained either wild type domain 11 (7 uM) or the E1544A mutant (8 μM), also in HBS-E buffer. […] Calorimetric data were analysed using MicroCal ORIGIN software (version 5.0) supplied with the instrument. […] Values for dissociation affinity constants (KD) were determined from duplicate experiments. […]
Attribute: pKd
Interpret pKd as the negative base-10 log of the concentration measured in mol/L.

binder: IGF2R domain 11 S1596A (amino acids 1511-1650, C-terminal His6 tag, from Pichia pastoris) (receptor) NEHDDCQVTNPSTGHLFDLSSLSGRAGFTAAYSEKGLVYMSICGENENCPPGVGACFGQTRISVGKANKRLRYVDQVLQLVYKDGAPCPSKSGLSYKSVISFVCRPEAGPTNRPMLISLDKQTCTLFFSWHTPLACEQATHHHHHH
pKd: 6.49
--
binder: IGF2R domain 11 Q1569A (amino acids 1511-1650, C-terminal His6 tag, from Pichia pastoris) (receptor) NEHDDCQVTNPSTGHLFDLSSLSGRAGFTAAYSEKGLVYMSICGENENCPPGVGACFGATRISVGKANKRLRYVDQVLQLVYKDGSPCPSKSGLSYKSVISFVCRPEAGPTNRPMLISLDKQTCTLFFSWHTPLACEQATHHHHHH
pKd: 6.68
--
binder: IGF2R domain 11 E1544A (amino acids 1511-1650, C-terminal His6 tag, from Pichia pastoris) (receptor) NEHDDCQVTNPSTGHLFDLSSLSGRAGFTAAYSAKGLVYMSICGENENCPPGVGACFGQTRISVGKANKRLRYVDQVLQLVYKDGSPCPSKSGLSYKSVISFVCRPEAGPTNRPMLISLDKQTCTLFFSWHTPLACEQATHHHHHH
pKd: 7.09
--
binder: IGF2R domain 11 E1544K (amino acids 1511-1650, C-terminal His6 tag, from Pichia pastoris) (receptor, also called enhanced mutant) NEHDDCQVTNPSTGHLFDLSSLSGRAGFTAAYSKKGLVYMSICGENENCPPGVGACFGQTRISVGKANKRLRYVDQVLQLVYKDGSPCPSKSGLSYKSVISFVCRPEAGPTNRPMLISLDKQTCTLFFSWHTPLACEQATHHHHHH
pKd: 7.58

# input Annotate the binder wild type IGF2R domain 11 (amino acids 1511-1650) with C-terminal His6 tag, from Pichia pastoris (receptor, also called WT; wild type domain 11) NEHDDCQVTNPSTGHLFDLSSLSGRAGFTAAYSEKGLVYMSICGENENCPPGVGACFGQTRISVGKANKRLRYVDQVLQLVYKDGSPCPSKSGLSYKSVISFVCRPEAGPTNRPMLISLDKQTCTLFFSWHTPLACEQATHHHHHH with its measured pKd.
# output 6.83

Measured values drawn from patent US20090304651A1 for this set.
